- Test system: Cryptococcus neoformans
- Test details: Antifungal activity against Cryptococcus neoformans ATCC 90113 assessed as growth inhibition after 70-74 hrs by CLSI method
- Type: functional, organism-based
- Conditions: Cryptococcus neoformans, ATCC 90113; read-out: IC50
Entries get a class label from measured IC50. See ranges: low = under 2 µg/mL, intermediate = from 2 µg/mL up to 8 µg/mL, high = 8 µg/mL and over

INSERT INTO assay_data (compound_string, group) VALUES
  ('COC(=O)[C@H](CCCNC(=N)N)NC(=O)[C@H](Cc1c[nH]c(-c2ccc(C)cc2)n1)NC(=O)OC(C)(C)C', 'high'),
  ('COC(=O)[C@H](Cc1c[nH]c(-c2ccc(C)cc2)n1)NC(=O)[C@@H](N)Cc1c[nH]c2ccccc12', 'high');

# input Place this compound in its band: COC(=O)[C@H](Cc1c[nH]c(-c2ccc(-c3ccccc3)cc2)n1)NC(=O)[C@@H](N)Cc1c[nH]c2ccccc12
# output intermediate

# input Queued: CC(C)(C)OC(=O)N[C@@H](Cc1c[nH]c(-c2cccc3ccccc23)n1)C(=O)N[C@@H](CCCNC(=N)N)C(=O)NCc1ccccc1
# output intermediate

# input Queued: COC(=O)[C@H](CCCNC(=N)N)NC(=O)[C@H](Cc1c[nH]c(-c2ccccc2)n1)NC(=O)OC(C)(C)C
# output high

# input Queued: COc1ccc(-c2nc(C[C@H](NC(=O)OC(C)(C)C)C(=O)N[C@@H](CCCNC(=N)N)C(=O)NCc3ccccc3)c[nH]2)cc1
# output intermediate

# input Queued: CC(C)(C)c1ccc(-c2nc(C[C@H](N)C(=O)N[C@@H](CCCNC(=N)N)C(=O)NCc3ccccc3)c[nH]2)cc1
# output low

# input Queued: N=C(N)NCCC[C@H](NC(=O)[C@@H](N)Cc1c[nH]c(-c2ccc(-c3ccccc3)cc2)n1)C(=O)NCc1ccccc1
# output low

# input Queued: COC(=O)[C@H](CCCNC(=N)N)NC(=O)[C@@H](N)Cc1c[nH]c(-c2cccc3ccccc23)n1
# output low

# input Queued: COC(=O)[C@H](CCCNC(=N)N)NC(=O)[C@@H](N)Cc1c[nH]c(-c2ccc(-c3ccccc3)cc2)n1
# output intermediate

# input Queued: Cc1ccc(-c2nc(C[C@H](N)C(=O)N[C@@H](CCCNC(=N)N)C(=O)NCc3ccccc3)c[nH]2)cc1
# output intermediate

# input Queued: CC(C)(C)OC(=O)N[C@@H](Cc1c[nH]c(-c2ccccc2)n1)C(=O)N[C@@H](CCCNC(=N)N)C(=O)NCc1ccccc1
# output intermediate

# input Queued: COC(=O)[C@H](Cc1c[nH]c(-c2ccc(C(C)(C)C)cc2)n1)NC(=O)[C@@H](N)Cc1c[nH]c2ccccc12
# output high

# input Queued: CC(C)(C)OC(=O)N[C@@H](Cc1c[nH]c(-c2ccc(-c3ccccc3)cc2)n1)C(=O)N[C@@H](CCCNC(=N)N)C(=O)NCc1ccccc1
# output low

----------
- System: Cryptococcus neoformans
- Test details: Antifungal activity against Cryptococcus neoformans ATCC 90113 assessed as growth inhibition after 70-74 hrs by CLSI method
- Format: functional, organism-based
- Conditions: Cryptococcus neoformans, ATCC 90113; read-out: IC50
Cut-off 2 µg/mL on IC50: below means yes, at or above means no.

INSERT INTO assay_data (compound_string, study_target, group) VALUES
  ('COc1ccc(-c2nc(C[C@H](NC(=O)[C@@H](N)Cc3c[nH]c4ccccc34)C(=O)NCc3ccccc3)c[nH]2)cc1', 'Cryptococcus neoformans', 'no'),
  ('COC(=O)[C@H](Cc1c[nH]c(-c2ccc(C(C)(C)C)cc2)n1)NC(=O)[C@H](Cc1c[nH]c2ccccc12)NC(=O)OC(C)(C)C', 'Cryptococcus neoformans', 'no'),
  ('N=C(N)NCCC[C@H](NC(=O)[C@@H](N)Cc1c[nH]c(-c2ccccc2)n1)C(=O)NCc1ccccc1', 'Cryptococcus neoformans', 'yes'),
  ('COC(=O)[C@H](Cc1c[nH]c(-c2ccccc2)n1)NC(=O)[C@@H](N)Cc1c[nH]c2ccccc12', 'Cryptococcus neoformans', 'no'),
  ('COC(=O)[C@H](CCCNC(=N)N)NC(=O)[C@H](Cc1c[nH]c(-c2cccc3ccccc23)n1)NC(=O)OC(C)(C)C', 'Cryptococcus neoformans', 'yes'),
  ('Cc1ccc(-c2nc(C[C@H](NC(=O)OC(C)(C)C)C(=O)N[C@@H](CCCNC(=N)N)C(=O)NCc3ccccc3)c[nH]2)cc1', 'Cryptococcus neoformans', 'no');

# input Determine if COC(=O)[C@H](Cc1c[nH]c(-c2cccc3ccccc23)n1)NC(=O)[C@@H](N)Cc1c[nH]c2ccccc12 shows IC50 strictly lower than 2 µg/mL.
# output no

# input Queued: CC(C)(C)OC(=O)N[C@@H](Cc1c[nH]c(-c2ccc(C(C)(C)C)cc2)n1)C(=O)N[C@@H](CCCNC(=N)N)C(=O)NCc1ccccc1
# output no

# input Queued: N=C(N)NCCC[C@H](NC(=O)[C@@H](N)Cc1c[nH]c(-c2cccc3ccccc23)n1)C(=O)NCc1ccccc1
# output yes

# input Queued: COC(=O)[C@H](CCCNC(=N)N)NC(=O)[C@H](Cc1c[nH]c(-c2ccc(-c3ccccc3)cc2)n1)NC(=O)OC(C)(C)C
# output no

# input Queued: N[C@@H](Cc1c[nH]c2ccccc12)C(=O)N[C@@H](Cc1c[nH]c(-c2ccc(-c3ccccc3)cc2)n1)C(=O)NCc1ccccc1
# output yes

# input Queued: COC(=O)[C@H](CCCNC(=N)N)NC(=O)[C@@H](N)Cc1c[nH]c(-c2ccccc2)n1
# output no
